Tested on: HepG2
EXPERIMENT DESCRIPTION: Cytotoxicity against human HepG2 cells after 48 hrs by MTT assay
Format: functional, cell-based
CONDITION: HepG2, 48 h
MEASURED ENDPOINT: IC50 (µM)
Give your result in µM as a bare value.

Lab note: measured IC50 of `CCCCN1C(=O)c2ccc3c4c(ccc(c24)C1=O)C(=O)N(CCCN(C)C)C3=O` was 1.48

IC50 measured on `CN(C)CCCN1C(=O)c2ccc3c4c(ccc(c24)C1=O)C(=O)N(CCCO)C3=O` = 5.96

Proceed to the following item.
Given item `CCCCN1C(=O)c2ccc3c4c(ccc(c24)C1=O)C(=O)N(CC(C)C)C3=O` , the value recorded as its IC50 is 45.2
